Data credit: PubChem BioAssay (NCI)

# Test system: TK-10 renal
# Protocol: NCI tumour cell line growth inhibition, 48 h
TGI values by entry
Measurement Kind: TGI (µM)

1. N#Cc1c(Cl)c2cc([N+](=O)[O-])ccc2n2c1nc1ccccc12 : 8.95
2. CC(=O)OC1(C)C=CC(=O)C=C1 : 49.8
3. CCOC(=O)c1c(C)nc2c(c1N)/C(=C/c1ccc(OC)cc1)C(=O)N2Cc1ccc(F)cc1 : 1
4. CCCCCCCCCCN(CCCCCCCCCC)C(=O)COc1c2cc(C(C)(C)C)cc1Cc1cc(C(C)(C)C)cc(c1OCC(=O)N(CCCCCCCCCC)CCCCCCCCCC)Cc1cc(C(C)(C)C)cc(c1OCC(=O)N(CCCCCCCCCC)CCCCCCCCCC)Cc1cc(C(C)(C)C)cc(c1OCC(=O)N(CCCCCCCCCC)CCCCCCCCCC)C2 : 33.5

----------
# Tested on: HOP-92 NSCLC
# Protocol: NCI tumour cell line growth inhibition, 48 h
Measurement Kind: TGI (µM)

1. COc1cc2c3c(n(C)c(=O)c2cc1OC)-c1cc2c(cc1/C3=C\CNCCCN)OCO2 : 1.27
2. O=C(/C(=C/c1cccc([N+](=O)[O-])c1)c1ccccc1)c1ccccc1 : 6.95
3. COc1cc2c(c(OC)c1OC)C(=O)[C@@H]1c3ccc([N+](=O)[O-])cc3C(=O)N(CCCBr)[C@H]21 : 78.6
4. O=C(Cc1ccccc1)N/N=C/c1ccccc1O : 54.8
5. COC1(OC)CC(CO)(CNc2nc(N)nc(Cl)c2/C=N\O)C1 : 89.2
6. COc1ccc2nc3cc(Cl)ccc3c(NCCN)c2c1 : 2.95
7. Cc1ccc(NC(=S)N/N=C(/c2ccccc2)c2ccccn2)cc1 : 8.82
8. CC(C)c1ccc(C(c2ccc(OCC(=O)O)cc2)c2ccc(C(C)C)cc(=O)c2O)c(O)c(=O)c1 : 0.956
9. C=CCc1cc(-c2cc(CC=C)c(O)c(CNCCCl)c2)cc(CNCCCl)c1O : 31.2
10. COC(=O)C1C(=O)C=CN([C@H](C)c2ccccc2)[C@@H]1Cc1ccc(OC)c(OCc2ccccc2)c1I (some centres not stated) : 17.4
11. N#Cc1c(-c2ccccc2)cc(Nc2cccc(C(F)(F)F)c2)n2c1nc1ccccc12 : 0.769
12. CC(C)(C)c1ccc(-c2nc3ccc(Cl)cc3c(=O)o2)cc1 : 46.8
13. O=c1c2cc(S(=O)(=O)O)ccc2nc(COc2ccc(Oc3ccc(Cl)cc3Cl)cc2)n1-c1ccc(Cl)cc1Oc1c(Cl)cccc1Cl : 47.1

----------
# Tested on: CAKI-1 renal
# Protocol: NCI tumour cell line growth inhibition, 48 h
TGI values by entry
Measurement Kind: TGI

1) Nc1ncn(C2CC(O)C(CO)O2)c(=O)n1 (stereo unspecified) : > 375 µM
2) COc1ccccc1N1CCN(CCCN2/C(=C(\O)c3ccccc3)C(=O)c3c(C)cc(C)nc3S2(=O)=O)CC1 : > 100 µM
3) Cc1[nH]n(C2=NCCN2)c(=O)c1Cc1ccccc1 : > 100 µM
4) CN(C)C(c1ccccc1)C(O)c1ccccc1 (stereo unspecified) : > 100 µM
5) COc1ccc(/C(Cl)=C(\C=O)c2ccc([N+](=O)[O-])cc2)cc1 : 33.8 µM
6) COc1ncc(-c2ccc3ncnc(Nc4cccc(Cl)c4)c3c2)cc1NS(=O)(=O)CCN1CCOCC1 : > 100 µM

----------
# Tested on: 786-0 renal
# Protocol: NCI tumour cell line growth inhibition, 48 h
Binary classification by TGI, with 6 µM as an inclusive lower bound for Y; all other cases are N.

1) CC(=O)O.[Au].c1ccc([PH+](c2ccccc2)c2ccccc2)cc1 : N
2) O=C(/C=C\n1cnc(-c2cc(C(F)(F)F)cc(C(F)(F)F)c2)n1)NNc1cnccn1 : Y
3) CNc1nc(N)c(N=O)c(Nc2ccc(Br)cc2)n1 : Y
4) FC(F)(F)c1nc(-c2ccccc2)oc1Sc1nnc(Sc2oc(-c3ccccc3)nc2C(F)(F)F)s1 : Y
5) CCN(CC)CC(=O)O[C@]1(CC)C(=O)OCc2c1cc1n(c2=O)Cc2cc3ccccc3nc2-1 : N
6) COc1ccc(CCN2CCN(CCc3ccc(OC)cc3)CC2)cc1 : Y
7) Cc1ccc(C)c(COCCOCn2ccc(N)nc2=O)c1 : Y
8) COC/C=C\[C@]1(O)CCCC[C@@H]1CC(OC)OC : Y
9) CCOC(=O)c1c(C)nc2c(c1N)/C(=C/c1ccc(OC)cc1)C(=O)N2Cc1ccc(F)cc1 : N

----------
TGI values by entry
# Tested on: HT29 colon
# Protocol: NCI tumour cell line growth inhibition, 48 h
Measurement Kind: TGI

1. CC(=O)OC1(C)C=CC(=O)C=C1 : > 100 µM
2. Cc1cccc2c(N)c3cccc(C(=O)NCC[N+](C)(C)Cc4c([N+](=O)[O-])ncn4C)c3nc12 : > 40.4 µM
3. COC(=O)C12C3C4C1C1C2C3C41NC(=O)c1csc([C@@H](C[C@H](C(C)C)N(C)C(=O)[C@@H](NC(=O)[C@H]2CCCCN2C)C2CC2)OC(C)=O)n1 (stereo not given in full) : > 33.3 µM
4. O=C1NCCCNCCCNCCCNC(=O)c2cccc1n2 : > 100 µM
5. COC(C(O)c1ccc2c(c1)OCO2)P(=O)(c1ccccc1)c1ccccc1 (stereo not given) : > 100 µM
6. CN(C)C(c1ccccc1)C(O)c1ccccc1 (stereo not given) : > 100 µM
7. Cc1ccc(-c2cc(=O)c3cc(C)c(C)c(C(=O)O)c3o2)cc1C : > 100 µM
8. CCc1ccc(Nc2ccc([N+](=O)[O-])cc2[N+](=O)[O-])cc1 : > 100 µM
9. CO[C@H]1C=C[C@@]23c4cc5c(cc4CO[C@]2(O)CN(C)[C@H]3C1)OCO5 : > 100 µM
10. COc1cccc(N2C(=O)[C@H]3CC(C)c4c([nH]c5ccccc45)[C@H]3C2=O)c1 (stereo not given in full) : > 100 µM

----------
# System: HCT-15 colon
# Protocol: NCI tumour cell line growth inhibition, 48 h
TGI values by entry
Measurement Kind: TGI

1) O=c1oc2cc(O)ccc2c(O)c1C(c1ccccc1F)c1c(O)c2ccc(O)cc2oc1=O : > 100 µM
2) C/C(=N\Nc1ccc(Cl)cn1)c1ccccn1 : > 50.4 µM
3) c1cc2c(ncc3cscc32)s1 : > 100 µM
4) Cc1ccc(C)c(COCCOCn2ccc(N)nc2=O)c1 : > 100 µM
5) C/C=C1/C(=C/c2[nH]c(/C=c3\[nH]/c(=C/C4=NC(=O)C(CC)=C4C)c(C)c3CCC(=O)O)c(CCC(=O)O)c2C)NC(=O)C1C (stereo unspecified) : > 150 µg/mL
6) CC(=O)OC1(C)C=CC(=O)C=C1 : > 100 µM

----------
# Test system: SNB-75 CNS
# Protocol: NCI tumour cell line growth inhibition, 48 h; in the data active = GI50 below about 0.43 µM; inactive = the rest
Possible outcomes: 1 (yes) (active), 0 (no) (inactive)

1. Cc1ccc2[nH]c(C(=O)NN3C(=O)C(C)SC34CCCC(C)C4)c(-c3ccccc3)c2c1 (stereo not drawn) : 0 (no)
2. COc1ccccc1Cn1cc2c(c1-c1ccccc1)CCc1cnoc1-2 : 0 (no)
3. COc1cc(NS(=O)(=O)c2ccc(-c3cnc(C4CC4)o3)cc2)ccc1F : 1 (yes)
4. CC[CH2][Sn]([Cl])([Cl])[CH2]CC.Oc1ccccc1C=NCCN=Cc1ccccc1O : 0 (no)
5. Cc1ccc(NC(=O)NCCCOc2ccc(N3C(N)=NC(N)=NC3(C)C)cc2Cl)cc1S(=O)(=O)F : 0 (no)
6. O=S1(=O)N(CCNc2nccc(-c3c(-c4cccc(O)c4)nc4sccn34)n2)CCN1Cc1ccccc1 : 0 (no)
7. COC(=O)C12C3C4C1C1C2C3C41NC(=O)c1csc([C@@H](C[C@H](C(C)C)N(C)C(=O)[C@@H](NC(=O)[C@H]2CCCCN2C)C2CC2)OC(C)=O)n1 (stereo partly drawn) : 1 (yes)
8. Cc1ccc(C(=O)Nc2ccc(CN3CCN(C)CC3)c(C(F)(F)F)c2)cc1C#Cc1cnc(N)c2ccccc12 : 0 (no)
9. Cc1ccc2c3c(c(=O)[nH]c2c1)C1(C(C#N)=C(N)O3)c2cc(Br)ccc2-c2ccc(Br)cc21 : 0 (no)
10. COc1ccc(C2SCC(=O)N2NC(=O)Nc2c(C)nc3ccccn23)cc1 (stereo not drawn) : 0 (no)
11. CCN(CC)CCCC(C)Nc1cnc(C(=O)Nc2cccc3ccc(OC)nc23)cn1 (stereo not drawn) : 0 (no)
12. O=C1NN(C2=NNC3(C(=O)N2)c2ccccc2-c2ccccc23)C(c2ccccc2)=N/C1=C/c1ccc(O)cc1 : 0 (no)
13. Cc1cc(O)c(C(C)(C)C)cc1Sc1cc(C(C)(C)C)c(O)cc1C : 0 (no)
